This section presents binders with their documented Kd values.
Target: T1, endothelial protein C receptor (EPCR), extracellular domain, biotinylated on the N-terminal BAP tag (human, UniProt Q9UNN8 18-210, biotin attached to the N-terminal BAP tag (BirA))
T1 construct: also called biotinylated recombinant EPCR; ECPR
T1 sequence: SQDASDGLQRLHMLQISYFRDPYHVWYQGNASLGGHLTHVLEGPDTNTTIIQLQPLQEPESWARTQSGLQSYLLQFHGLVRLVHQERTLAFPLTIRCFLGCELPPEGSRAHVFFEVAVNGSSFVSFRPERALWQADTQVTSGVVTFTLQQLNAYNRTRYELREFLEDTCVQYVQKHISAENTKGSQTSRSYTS
Experiment: SPR
Conditions: both partners purified
Write down the numeric answer in nM and omit the unit.

| binder | unit of measurement | Kd |
| --- | --- | --- |
| CIDRα1.1 domain GA011_ERS009959 (domain or fragment, also called CIDRa1.1 GA011_ERS009959; GA011 (1.1)) PDCVVYCEGGECKENENGDNCRSEIIKEIVRSETPTVIDVLYSGNGQDHITEKLDHFCSSTNKEDRKYYKTLKCYNKNNDYNKCEMISWLYQDPKESNLMLSIQCFYSWAQNLLIDTIRWEHQLKDCINNTNVTDCKSNCNKNCKCYKKWIEQKGSEWQQVKQVLKKKDKNSENYYDKLKDVFDTLYFEVMHELNKGKEKGKSEELTEDLKKKFGPSKKNTDAADSKDAIEFLLDHLNDNAITCKDNNSLAVENCTRTKSNPC | nM | 182 |
| CIDRα1.5a domain GA013_ERS010323 (domain or fragment, also called CIDRa1.5a GA013_ERS010323; GA013 (1.5a)) PYCGVDCSNGTCKENGNDDNCGEQQNYNIPKGVDPTNINVLYSVDGHGDIAKRLSTFCNDKNNKNAKNNEIWQCYYIGHKNNQCKIEKSVSQKKHQTKIAPFDYFFDLWVTNLLRDNIDWKNELKNCINNKNTEKCNKECNDNCKCFQSWLNKKEDEWNKITGLLKNKNGILQNYYNKLKSHFDYYFFQVINNINKGEEKWKKLKEDLKKEIDFSKLKTNTGDSQDSIKLLLDHENKNAGTCLKNNPIDSCPKAEPQKSDEKVQPQDTPPNSC | nM | 57 |
| CIDRα1.8b domain 1702-3 (patient isolate 1702) (domain or fragment) PDCIVVCDYKGCKENKNDENCKSKRTYSLPPDVNSTEIEVLFSGDNQEDIVEKLSSFCKNTNNENGENVEKWECYYESEHNNKCKMTSPKHKDEKRPTVMIFDEFFDFWVTHLIKDTIKWESDINDCINNTNVTDCDSACNENCKCFDEWVEKKEVEWGNVKKVLGNRSENLNIYYNKLNGIFSGFFFGVMHELKKKEAKQGVKAEEAQEAEETQEAQEEEAKWNKLTAKLQEIIDSSKGKADTANSQDAIKPLLEYIKETATTCIDNNSLAVENCPKTKINPC | nM | 6 |
| CIDRα1.7 domain 1965-8 (patient isolate 1965) (domain or fragment) PHCGVDCNGKKCTLKSDNDPQCVNKLKYEPPYGVKPTEITVLYSADQEGDISKKLSEFCNDEKKINSKNIETWKCYYKSTYNNACKMDKNSKNHTPEVKITKFHNFFEMWIVYLLTETITWNDKLKTCMNNIKTTDCIDECNTNCVCFDKWVKQKGKEWNSIKKLFIKEQKNPKQNYGNINIYFESFFFHVMDKLNHDEAKWNELMNELKQIIDSSKANTDNKNLQDAIKVLFDHLKEIATICKDNNTNEACEDSKKETQNPC | nM | 3.5 |

Now for a further binder.
// query So what does the record say about Kd for CIDRα1.1 domain of PfEMP1 RAJ116var08 (domain or fragment, also called CIDRa1.1 RAJ116var08_RAJ116; RAJ116var08 (1.1)) PDCVVDCTGGNCKENKKHDNCRSKIIEEILRSEETTDIDVLYSGKGPGAITKKLHDFCSNPNNYKRANVQKWKCYNKNKDYNNCEMNISSYKDATDPNVMLSVQCFYSWAQNLLIDIIRWEHQLKDCINNTNVTDCDNECNKNCECFEKWIKQKQKEWQQVKEVLKKKDENSHNYYNKLRSVFDSFLYQVMFALNNEEKGKWDQFTEDLEKKFESSKKSAGTGNSQDAIEFLLDHLNDNAITCKDNNSKESC ?
// result 1.4
